# Tested on: HPPD polypeptides
# experiment: coupled HPPD activity assay: turnover and residual turnover in crude extracts
# Type: biochemical, Pseudomonas fluorescens
# condition parameters: presence of 100 μM Cmpd. 1; high substrate concentration; changes in absorbance (OD) at 320 nm

{"molecule": "62 (protein, mutant HPPD polypeptide) MADLYENPMGLMGFEFIEFASPTPGTLEPIFEIMGFTKVATHRSKNVHLYRQGEINLILNNEPNSIASYFAAEHGPSVCGMAFRVKDSQKAYNRALELGAQPIHIDTGPMELNLPAIKGIGGAPLYLIDRFGEGSSIYDIDFVYLEGVERNPVGAGLKVIDHLTHNVYRGRMVYWANFYEKLFNFREARYFDIKGEYTGLTSKAMSAPDGMIRIPLNEESSKGAGQIEEFLMQFNGEGIQHVAFLTDDLVKTWDALKKIGMRFMTAPADSYYEMLEGRLPDHGEPVDQLQARGILLDGSSVEGDKRLLLQIFSETLMGPVFFEFIQRKGDDGFGPHSFKVLFESMERDQVRRGVLTAD", "Residual turnover": 0.115}
{"molecule": "19 (protein, mutant HPPD polypeptide) MADLYENPMGLMGFEFIEFASPTPGTLEPIFEIMGFTKVATHRSKNVHLYRQGEINLILNNEPNSIASYFAAEHGPSVCGMAFRVKDSQKAYNRALELGAQPIHIDTGPMELNLPAIKGIGGAPLYLIDRFGEGSSIYDIDFVYLEGVERNPVGAGLKVIDHLTHNVYRGRMVYWANFYEKLFNFREARYFDIKGEYTGLTSKAMSAPDGMIRIPLNEESSKGAGQIEEFLMQFNGEGIQHVAFLTDDLVKTWDALKKIGMRFMTAPRDEYYEMLEGRLPDHGEPVDQLQARGILLDGSSVEGDKRLLLQIFSETLMGPVFFEFIQRKGDDGFGPDSFKVLFESVERDQVRRGVLTAD", "Residual turnover": 0.063}
